biological target: human TLR9 (Homo sapiens); assay: TLR9 inhibition reporter assay (HEK-Blue cells, SEAP reporter, ODN2006 stimulation); conditions: HEK-Blue cells overexpressing human TLR9, SEAP reporter, ODN2006 5 nM
Sequence (Q9NR96 26-1032): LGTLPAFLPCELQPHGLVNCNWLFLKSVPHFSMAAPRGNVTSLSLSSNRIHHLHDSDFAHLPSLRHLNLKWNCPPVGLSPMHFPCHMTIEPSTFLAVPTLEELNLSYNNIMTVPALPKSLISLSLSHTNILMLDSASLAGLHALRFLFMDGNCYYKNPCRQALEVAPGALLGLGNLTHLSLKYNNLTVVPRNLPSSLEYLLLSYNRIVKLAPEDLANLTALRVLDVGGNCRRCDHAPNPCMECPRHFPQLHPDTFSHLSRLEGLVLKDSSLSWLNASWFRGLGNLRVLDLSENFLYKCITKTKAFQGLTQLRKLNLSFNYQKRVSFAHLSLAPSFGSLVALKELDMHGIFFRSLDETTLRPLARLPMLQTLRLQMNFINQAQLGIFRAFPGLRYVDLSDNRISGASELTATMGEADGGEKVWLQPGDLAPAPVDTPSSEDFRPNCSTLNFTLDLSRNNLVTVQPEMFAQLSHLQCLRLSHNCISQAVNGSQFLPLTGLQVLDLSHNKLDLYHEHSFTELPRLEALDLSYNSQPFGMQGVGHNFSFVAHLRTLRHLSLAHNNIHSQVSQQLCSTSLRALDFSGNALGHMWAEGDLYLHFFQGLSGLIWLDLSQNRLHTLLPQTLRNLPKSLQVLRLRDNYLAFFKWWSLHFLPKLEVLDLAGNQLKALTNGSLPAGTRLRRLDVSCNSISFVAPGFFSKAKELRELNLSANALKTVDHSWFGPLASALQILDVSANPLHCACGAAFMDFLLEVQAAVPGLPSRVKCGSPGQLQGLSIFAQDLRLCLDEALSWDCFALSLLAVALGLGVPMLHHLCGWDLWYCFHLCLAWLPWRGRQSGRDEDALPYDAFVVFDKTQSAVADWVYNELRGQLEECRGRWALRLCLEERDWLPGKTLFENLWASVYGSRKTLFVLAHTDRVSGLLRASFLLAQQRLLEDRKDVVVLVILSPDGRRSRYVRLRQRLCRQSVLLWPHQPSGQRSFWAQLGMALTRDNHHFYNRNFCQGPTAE
RECORDED METRIC: IC50

[[record]]
substance_smiles = "CC(C)NCC(=O)N1CCC(c2ccc3[nH]c(-c4ccnc5[nH]ncc45)c(C(C)C)c3c2)CC1"
reported_result = "1000 to 50000 nM"

[[record]]
substance_smiles = "CCOc1cc(-c2[nH]c3ccc(C4CCN(CC(=O)NC)CC4)cc3c2C(C)C)cc2nc(C)nn12"
reported_result = "1000 to 50000 nM"

[[record]]
substance_smiles = "CC(C)c1c(-c2cnc3c(cnn3C)c2)[nH]c2ccc(C3CCN(CC(=O)N(C)C)CC3)cc12"
reported_result = "1000 to 50000 nM"

[[record]]
substance_smiles = "Cc1c(-c2ncc3[nH]ccc3n2)[nH]c2ccc(C3CCN(C4CCN(C(C)C)CC4)CC3)cc12"
reported_result = "< 100 nM"

[[record]]
substance_smiles = "Cc1cn2cc(-c3[nH]c4ccc(C5CCN(C(=O)CN(C)C)CC5)cc4c3C(C)C)cc(C)c2n1"
reported_result = "100 to 1000 nM"

[[record]]
substance_smiles = "CC(C)c1c(-c2ncnn3cccc23)[nH]c2ccc(C3CCNCC3)cc12"
reported_result = "100 to 1000 nM"

[[record]]
substance_smiles = "Cc1cnc2[nH]ccc2c1-c1[nH]c2ccc(C3CCNCC3)cc2c1C(C)C"
reported_result = "1000 to 50000 nM"

[[record]]
substance_smiles = "CC(C)c1c(-c2ccc3onc(N)c3c2)[nH]c2ccc(C3CCNCC3)cc12"
reported_result = "100 to 1000 nM"

[[record]]
substance_smiles = "COc1nc(-c2[nH]c3ccc(C4CCNCC4)cc3c2C(C)C)cn2ncnc12"
reported_result = "1000 to 50000 nM"

[[record]]
substance_smiles = "CNC(=O)CN1CCC(c2ccc3[nH]c(-c4ccn5nncc5c4)c(C(C)C)c3c2)CC1"
reported_result = "1000 to 50000 nM"


====

Below: a set of entries, each annotated with reported IC50.
target: human TLR7 (Homo sapiens); assay: TLR7 inhibition reporter assay (HEK-Blue cells, SEAP reporter, gardiquimod stimulation); settings: HEK-Blue cells overexpressing human TLR7, SEAP reporter, gardiquimod 7.5 μM
Sequence (Q9NYK1 27-1049): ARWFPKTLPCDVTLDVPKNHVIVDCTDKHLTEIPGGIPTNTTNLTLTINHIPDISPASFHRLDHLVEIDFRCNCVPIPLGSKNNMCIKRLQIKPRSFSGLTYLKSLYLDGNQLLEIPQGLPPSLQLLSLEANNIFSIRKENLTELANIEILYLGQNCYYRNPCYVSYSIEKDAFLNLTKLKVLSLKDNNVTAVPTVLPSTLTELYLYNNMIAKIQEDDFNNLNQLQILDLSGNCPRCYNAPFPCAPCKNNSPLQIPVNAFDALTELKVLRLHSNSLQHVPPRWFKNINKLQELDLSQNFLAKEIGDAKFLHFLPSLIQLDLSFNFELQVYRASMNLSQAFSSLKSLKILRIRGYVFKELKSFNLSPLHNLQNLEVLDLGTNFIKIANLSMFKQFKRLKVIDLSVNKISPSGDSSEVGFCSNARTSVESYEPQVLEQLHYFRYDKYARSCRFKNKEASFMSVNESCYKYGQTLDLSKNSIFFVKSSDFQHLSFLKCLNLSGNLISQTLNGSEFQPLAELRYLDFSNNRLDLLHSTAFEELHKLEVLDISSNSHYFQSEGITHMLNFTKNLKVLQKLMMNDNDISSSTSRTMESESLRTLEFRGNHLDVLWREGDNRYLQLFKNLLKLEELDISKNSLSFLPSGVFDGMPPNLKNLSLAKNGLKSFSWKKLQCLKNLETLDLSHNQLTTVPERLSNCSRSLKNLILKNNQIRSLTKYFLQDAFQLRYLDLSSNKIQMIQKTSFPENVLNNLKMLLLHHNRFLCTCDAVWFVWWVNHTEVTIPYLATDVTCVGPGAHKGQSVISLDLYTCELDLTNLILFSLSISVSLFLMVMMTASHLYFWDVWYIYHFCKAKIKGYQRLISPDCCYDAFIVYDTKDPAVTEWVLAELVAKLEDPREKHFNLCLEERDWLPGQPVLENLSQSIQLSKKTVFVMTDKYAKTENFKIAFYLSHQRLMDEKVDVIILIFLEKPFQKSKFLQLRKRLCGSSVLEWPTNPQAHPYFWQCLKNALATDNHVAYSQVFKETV
RECORDED METRIC: IC50

[[record]]
substance_smiles = "Cc1nc2cc(-c3[nH]c4ccc(C5CCN(CC(=O)N(C)C)CC5)cc4c3C(C)C)cc(C)c2o1"
reported_result = "< 100 nM"

[[record]]
substance_smiles = "CC(C)c1c(-c2ccnc3[nH]ncc23)[nH]c2ccc(C3CCN(C(=O)CN4CC[C@H](N(C)C)C4)CC3)cc12"
reported_result = "< 100 nM"

[[record]]
substance_smiles = "CCc1c(-c2ccnc3[nH]ncc23)[nH]c2ccc(C3CCN(Cc4nccs4)CC3)cc12"
reported_result = "100 to 1000 nM"


====

molecular target: human TLR8 (Homo sapiens, UniProt Q9NR97); construct: host or cells: HEK-Blue cells (HEK293-derived reporter line); assay: TLR8 inhibition reporter assay (HEK-Blue cells, SEAP reporter, R848 stimulation); format: cell-based; conditions: HEK-Blue cells overexpressing human TLR8, SEAP reporter, R848 15.9 μM
Sequence (Q9NR97 27-1041): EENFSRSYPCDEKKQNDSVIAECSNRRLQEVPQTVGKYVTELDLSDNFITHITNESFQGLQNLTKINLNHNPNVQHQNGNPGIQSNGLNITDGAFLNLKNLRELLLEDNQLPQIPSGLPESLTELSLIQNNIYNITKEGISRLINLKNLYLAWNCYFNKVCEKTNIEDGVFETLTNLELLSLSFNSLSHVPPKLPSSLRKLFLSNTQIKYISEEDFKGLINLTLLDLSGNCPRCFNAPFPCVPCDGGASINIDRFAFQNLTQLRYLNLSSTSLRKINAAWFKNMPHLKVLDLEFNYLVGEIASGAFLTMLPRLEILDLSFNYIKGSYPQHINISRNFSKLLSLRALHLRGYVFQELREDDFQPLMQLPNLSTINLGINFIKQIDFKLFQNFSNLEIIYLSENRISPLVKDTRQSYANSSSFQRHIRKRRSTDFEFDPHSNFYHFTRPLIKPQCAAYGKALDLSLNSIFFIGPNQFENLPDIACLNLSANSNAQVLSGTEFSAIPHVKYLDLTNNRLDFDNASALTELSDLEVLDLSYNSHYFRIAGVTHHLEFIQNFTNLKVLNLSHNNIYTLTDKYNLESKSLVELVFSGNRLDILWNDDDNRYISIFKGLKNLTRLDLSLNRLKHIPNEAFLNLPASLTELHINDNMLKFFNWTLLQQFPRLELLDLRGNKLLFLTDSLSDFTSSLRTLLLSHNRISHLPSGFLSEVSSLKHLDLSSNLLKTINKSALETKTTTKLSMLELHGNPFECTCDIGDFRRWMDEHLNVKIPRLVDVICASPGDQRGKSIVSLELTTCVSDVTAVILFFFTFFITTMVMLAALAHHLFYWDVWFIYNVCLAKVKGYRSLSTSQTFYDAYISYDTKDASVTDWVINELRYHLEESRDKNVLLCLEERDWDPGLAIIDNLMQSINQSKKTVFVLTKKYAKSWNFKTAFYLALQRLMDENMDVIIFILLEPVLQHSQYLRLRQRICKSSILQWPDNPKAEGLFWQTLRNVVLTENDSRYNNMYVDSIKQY
RECORDED METRIC: IC50

[[record]]
compound = "Cc1cc(-c2[nH]c3ccc(C4CCNCC4)cc3c2C(C)C)cn2cc(C(=O)N(C)CCO)nc12"
recorded_metric = "IC50"
reported_result = "< 100 nM"

[[record]]
compound = "Cc1nc2c(-c3[nH]c4ccc(C5CCN(CC(C)(C)O)CC5)cc4c3C(C)C)ccc(C)n2n1"
recorded_metric = "IC50"
reported_result = "1000 to 50000 nM"

[[record]]
compound = "CNC(=O)c1cn2cc(-c3[nH]c4ccc(C5CCN(C(=O)CN(C)C)CC5)cc4c3C(C)C)cc(C)c2n1"
recorded_metric = "IC50"
reported_result = "< 100 nM"

[[record]]
compound = "CNC(=O)CN1CCC(c2ccc3[nH]c(-c4cn(C)c5ncccc45)c(C(C)C)c3c2)CC1"
recorded_metric = "IC50"
reported_result = "< 100 nM"

[[record]]
compound = "CC(C)c1c(-c2ccc3c(c2)oc(=O)n3C)[nH]c2ccc(C3CCNCC3)cc12"
recorded_metric = "IC50"
reported_result = "< 100 nM"

[[record]]
compound = "CC(C)c1c(-c2cn(C)c3ncccc23)[nH]c2ccc(C3CCN(C4COC4)CC3)cc12"
recorded_metric = "IC50"
reported_result = "< 100 nM"

[[record]]
compound = "CC(C)c1c(-c2ccnc3[nH]ncc23)[nH]c2ccc(C3CCN(C(=O)Cc4c[nH]cn4)CC3)cc12"
recorded_metric = "IC50"
reported_result = "< 100 nM"

[[record]]
compound = "CCc1c(-c2cccc3[nH]ncc23)[nH]c2ccc(C3CCN(CC(=O)NC)CC3)cc12"
recorded_metric = "IC50"
reported_result = "1000 to 50000 nM"

[[record]]
compound = "FC(F)Cc1c(-c2ccnc3[nH]ncc23)[nH]c2ccc(C3CCNCC3)cc12"
recorded_metric = "IC50"
reported_result = "100 to 1000 nM"

[[record]]
compound = "CNCCN1CCC(c2ccc3[nH]c(-c4ccc5ncccc5c4)c(C)c3c2)CC1"
recorded_metric = "IC50"
reported_result = "> 3130 nM"

[[record]]
compound = "CCOc1cc(-c2[nH]c3ccc(C4CCNCC4)cc3c2C(C)C)cc2ncnn12"
recorded_metric = "IC50"
reported_result = "< 100 nM"

[[record]]
compound = "CC(C)c1c(-c2cn3cnnc3c(=O)n2C)[nH]c2ccc(C3CCNCC3)cc12"
recorded_metric = "IC50"
reported_result = "> 3130 nM"

[[record]]
compound = "CC(C)c1c(-c2ccnc3[nH]ncc23)[nH]c2ccc(C3CCN(C4CCCNCC4)CC3)cc12 (stereo not shown)"
recorded_metric = "IC50"
reported_result = "< 100 nM"

[[record]]
compound = "Cc1ccc(-c2[nH]c3ccc(C4CCN(C(=O)CN(C)C)CC4)cc3c2C(C)C)c2ncnn12"
recorded_metric = "IC50"
reported_result = "< 100 nM"

[[record]]
compound = "CC(C)c1c(-c2ccnc3[nH]ncc23)[nH]c2ccc(C3CCN(C(=O)Cn4ccnc4)CC3)cc12"
recorded_metric = "IC50"
reported_result = "< 100 nM"

[[record]]
compound = "CNCC(=O)N1CCC(c2ccc3[nH]c(-c4cc(C)nc5ccccc45)c(C(C)C)c3c2)CC1"
recorded_metric = "IC50"
reported_result = "< 100 nM"

[[record]]
compound = "CC(C)c1c(-c2cnc3cnccn23)[nH]c2ccc(C3CCN(CC(=O)N(C)C)CC3)cc12"
recorded_metric = "IC50"
reported_result = "1000 to 50000 nM"

[[record]]
compound = "Cc1cc(-c2[nH]c3ccc(C4CCNCC4)cc3c2C(C)C)cn2ccnc12"
recorded_metric = "IC50"
reported_result = "< 100 nM"

[[record]]
compound = "Cc1cc(-c2[nH]c3ccc(C4CCN(C(=O)CN(C)C)CC4)cc3c2C(C)C)cc2cnnn12"
recorded_metric = "IC50"
reported_result = "< 100 nM"

